- assay name: qHTS for inhibitors of Vif-A3G interactions: Cherry picks; note: nearly all actives have a fitted effect of over 80% in size
- condition description: HeLa A3G-eYFP + Vif, 24 h; eYFP fluorescence increase; series mostly up to 36.9 µM
About 650 (31%) of roughly 2,100 compounds were called active. About 16% were inconclusive and are not listed. Calls come from the whole dose curve; as a rule, active = well fitted inhibition curve with a large enough effect; inconclusive = small, poorly fitted or top-dose-only effect; inactive = flat fitted curve, though single readings scatter. Some of the results follow.
Your response should consist of one outcome taken from y for active, n for inactive

{"smi": "O=c1c2ccccc2nc(/C=C/c2ccccc2O)n1-c1ccc(Br)cc1", "category label": "y"}

Field: outcome | Entry: COc1ccc(-n2c(/C=C/c3ccc(O)c(OC)c3)nc3ccccc3c2=O)cc1
y

Then Cc1ccc(CNC(=O)c2ccccc2NC(=O)c2nsc3ccccc23)cc1 ?
y

Then C=CCn1c(O)c(C(C)=Nc2ccc(N(CC)CC)cc2)c(=O)[nH]c1=O ?
n

Then COc1cc2c(cc1O)[C@@H]1Cc3ccc(OC)c(O)c3CN1CC2 ?
n

----------
- assay name: qHTS for inhibitors of Vif-A3G interactions: Cherry picks; note: nearly all actives have a fitted effect of over 80% in size
- condition description: HeLa A3G-eYFP + Vif, 24 h; eYFP fluorescence increase; series mostly up to 36.9 µM
- Description: The recent discovery and characterization of host restriction factors, which provide a potent defense to invading retroviruses, has provided new targets for antiviral drug development. […] In the presence of an inhibitor, it is expected that Vif will be unable to degrade A3G-eYFP and/or A3F-eYFP, resulting in an increase in yellow fluorescence. […]
Out of some 2,100 compounds screened, about 650 (31%) were called active. Roughly 16% stayed inconclusive and do not appear here. Calls follow the shape of the dose curve; as a rule, active = well fitted inhibition curve with a large enough effect; inconclusive = small, poorly fitted or top-dose-only effect; inactive = flat fitted curve, though single readings scatter. The list shows a part of the results.
Your response should consist of one outcome taken from true (active), false (inactive)

Worked examples follow.
{"compound": "CCS(=O)(=O)N1N=C(c2cccc(NS(C)(=O)=O)c2)CC1c1ccccc1 (stereo not given)", "category label": "true"}
{"compound": "N#CC1=C(N)Oc2c(c(=O)sc3ccccc23)C1c1cccnc1 (stereo not given)", "category label": "false"}
{"compound": "O=c1nc(/C=C/c2ccc(Cl)cc2Cl)cc(C(F)(F)F)[nH]1", "category label": "false"}

Field: outcome | Entry: O=c1c2ccccc2nc(/C=C/c2ccc([N+](=O)[O-])o2)n1-c1ccc(O)cc1
true

Then CN(C)c1ccc(C(=O)c2ccc(N(C)C)cc2)cc1 ?
false

----------
- assay name: qHTS for inhibitors of Vif-A3G interactions: Cherry picks; note: nearly all actives have a fitted effect of over 80% in size
- condition description: HeLa A3G-eYFP + Vif, 24 h; eYFP fluorescence increase; series mostly up to 36.9 µM
Hit rate of the full screen: of about 2,100 compounds, about 650 (31%) were called active. About 16% were inconclusive and are not listed. The call rests on the fitted dose curve; in most records, active means well fitted inhibition curve with a large enough effect; inconclusive means small, poorly fitted or top-dose-only effect; inactive means flat fitted curve, though single readings scatter. Some of the results follow.
Your response should consist of one outcome taken from yes (1) (active), no (0) (inactive)

Worked examples follow.
{"compound": "CCCCNC(=O)/C(C#N)=c1\\s/c(=C\\c2ccccc2OC(F)F)c(=O)n1CCCOC", "category label": "yes (1)"}
{"compound": "COC(=O)C1=C(C)N(Cc2ccco2)C(=O)/C1=C\\c1ccc(N(C)C)cc1", "category label": "yes (1)"}
{"compound": "CCN(CC)c1ccc(/C=C2\\C(=O)NC(=S)N(C)C2=O)o1", "category label": "yes (1)"}

Field: outcome | Entry: Nc1ccc2c3c(cccc13)-c1ccccc1-2
yes (1)

Then O=[N+]([O-])c1ccc(N2CCOCC2)c2c1no[n+]2[O-] ?
no (0)

Then C=C1C(=O)OC2C1CCC(C)C1(O)C=CC(=O)C21C (centres undefined) ?
no (0)

Then Cc1c2ccncc2c(C)c2c1[nH]c1ccccc12 ?
yes (1)

Then O=Cc1c(C(=O)O)n(Cc2ccc(Cl)cc2)c2ccccc12 ?
yes (1)

----------
- assay name: qHTS for inhibitors of Vif-A3G interactions: Cherry picks; note: nearly all actives have a fitted effect of over 80% in size; note: potency is the fitted concentration of half-maximal effect
- condition description: HeLa A3G-eYFP + Vif, 24 h; eYFP fluorescence increase; series mostly up to 36.9 µM
In all, about 2,100 compounds went through this assay and about 650 (31%) were called active. Not shown: some 16% with an inconclusive outcome. The list shows a part of the results.
parameter measured: Potency

{"compound": "CN1C(=O)/C(=C\\c2ccc(N3CCCCC3)o2)C(=O)NC1=S", "Potency": "17.7 µM (active)"}
{"compound": "CCN(CC)c1ccc(N=Cc2c(O)n(CCC3=CCCCC3)c(=O)[nH]c2=O)cc1", "Potency": "3.66 µM (active)"}
{"compound": "CN1C(=O)C(=Cc2ccc(N3CCOCC3)o2)C(=O)N(C)C1=O", "Potency": "23.1 µM (active)"}
{"compound": "Cc1cc(/C=C2\\C(=O)NC(=O)N(c3ccc(Br)cc3)C2=O)c(C)n1C", "Potency": "inactive"}
{"compound": "O=c1[nH]c(CN2CC=C(c3ccccc3)CC2)nc2scc(-c3ccccc3)c12", "Potency": "23.1 µM (active)"}
{"compound": "O=C1CN=C(c2cccc(Br)c2)c2cc(Br)ccc2N1", "Potency": "inactive"}
{"compound": "CN1C(=O)/C(=C/c2ccc(N3CCCCCC3)o2)C(=O)NC1=S", "Potency": "15.8 µM (active)"}
{"compound": "CC/C(=N\\NC(=O)c1ccccc1O)c1c(O)n(Cc2ccccc2)c(=O)[nH]c1=O", "Potency": "20.6 µM (active)"}

Bench note: what Potency did CCC(C)N1C(=O)/C(=C\c2ccc(N3CCCCCC3)cc2)C(=O)NC1=S (stereo not given) show?
inactive

Then CC(C)CCCn1c(O)c(/C=C2/C=CC=N2)c(=O)[nH]c1=O ?
23.1 µM (active)

----------
- assay name: qHTS for inhibitors of Vif-A3G interactions: Cherry picks; note: nearly all actives have a fitted effect of over 80% in size
- condition description: HeLa A3G-eYFP + Vif (tagged APOBEC3G with the HIV-1 protein that degrades it), 24 h; eYFP fluorescence increase; series mostly up to 36.9 µM
About 650 (31%) of roughly 2,100 compounds were called active. Inconclusive results (about 16%) are left out. The call rests on the fitted dose curve; in most records, active means well fitted inhibition curve with a large enough effect; inconclusive means small, poorly fitted or top-dose-only effect; inactive means flat fitted curve, though single readings scatter. The list shows a part of the results.
Your response should consist of one outcome taken from yes for active, no for inactive

Worked examples follow.
{"compound": "Cc1cccc(N2C(=O)NC(=O)/C(=C\\C=C\\c3ccco3)C2=O)c1", "category label": "no"}
{"compound": "CCN(CC)c1ccc(C=C2C(=O)N(C)C(=S)N(C)C2=O)o1", "category label": "yes"}
{"compound": "CCN1C(=O)/C(=C/c2ccc(N(CC)CC)cc2OC)C(=O)NC1=S", "category label": "no"}
{"compound": "C/C(=C\\c1ccc(N(C)C)cc1)[N+](=O)[O-]", "category label": "no"}
{"compound": "Cc1cc(C)cc(N2C(=O)NC(=O)/C(=C\\C=C\\c3ccco3)C2=O)c1", "category label": "no"}
{"compound": "CC(=O)OC1C2(CC3N4C(=O)C5(CO)SSC4(CC31O)C(=O)N5C)OC(C)C(C)(C)C2=O (stereo unspecified)", "category label": "no"}
{"compound": "CCCCn1c(O)c(C(=O)/C=C/c2c[nH]c3ccccc23)c(=O)[nH]c1=O", "category label": "yes"}
{"compound": "NC(=Nc1ccccc1)NN=Cc1c[nH]c2ccccc12", "category label": "no"}
{"compound": "Cc1cccc(CN2CCCC(C(=O)c3cccc(OC(C)C)c3)C2)n1 (stereo unspecified)", "category label": "no"}
{"compound": "COc1ccc(-c2ccc(OC)c(OC)c2OC)cc1", "category label": "no"}

Now examine the next entry.
Field: outcome | Entry: COCCCn1c(=O)/c(=C\c2ccccc2OC(F)F)s/c1=C(/C#N)C(=O)NCCOC
yes
